binders and their reported EC50 (nM), TcdA neutralization, T84 cells
target: full-length TcdA (TcdA1-2710) (Clostridioides difficile strain VPI10463, UniProt P16154 1-2710); experiment: cell-based or functional assay
Sequence (P16154 whole entry): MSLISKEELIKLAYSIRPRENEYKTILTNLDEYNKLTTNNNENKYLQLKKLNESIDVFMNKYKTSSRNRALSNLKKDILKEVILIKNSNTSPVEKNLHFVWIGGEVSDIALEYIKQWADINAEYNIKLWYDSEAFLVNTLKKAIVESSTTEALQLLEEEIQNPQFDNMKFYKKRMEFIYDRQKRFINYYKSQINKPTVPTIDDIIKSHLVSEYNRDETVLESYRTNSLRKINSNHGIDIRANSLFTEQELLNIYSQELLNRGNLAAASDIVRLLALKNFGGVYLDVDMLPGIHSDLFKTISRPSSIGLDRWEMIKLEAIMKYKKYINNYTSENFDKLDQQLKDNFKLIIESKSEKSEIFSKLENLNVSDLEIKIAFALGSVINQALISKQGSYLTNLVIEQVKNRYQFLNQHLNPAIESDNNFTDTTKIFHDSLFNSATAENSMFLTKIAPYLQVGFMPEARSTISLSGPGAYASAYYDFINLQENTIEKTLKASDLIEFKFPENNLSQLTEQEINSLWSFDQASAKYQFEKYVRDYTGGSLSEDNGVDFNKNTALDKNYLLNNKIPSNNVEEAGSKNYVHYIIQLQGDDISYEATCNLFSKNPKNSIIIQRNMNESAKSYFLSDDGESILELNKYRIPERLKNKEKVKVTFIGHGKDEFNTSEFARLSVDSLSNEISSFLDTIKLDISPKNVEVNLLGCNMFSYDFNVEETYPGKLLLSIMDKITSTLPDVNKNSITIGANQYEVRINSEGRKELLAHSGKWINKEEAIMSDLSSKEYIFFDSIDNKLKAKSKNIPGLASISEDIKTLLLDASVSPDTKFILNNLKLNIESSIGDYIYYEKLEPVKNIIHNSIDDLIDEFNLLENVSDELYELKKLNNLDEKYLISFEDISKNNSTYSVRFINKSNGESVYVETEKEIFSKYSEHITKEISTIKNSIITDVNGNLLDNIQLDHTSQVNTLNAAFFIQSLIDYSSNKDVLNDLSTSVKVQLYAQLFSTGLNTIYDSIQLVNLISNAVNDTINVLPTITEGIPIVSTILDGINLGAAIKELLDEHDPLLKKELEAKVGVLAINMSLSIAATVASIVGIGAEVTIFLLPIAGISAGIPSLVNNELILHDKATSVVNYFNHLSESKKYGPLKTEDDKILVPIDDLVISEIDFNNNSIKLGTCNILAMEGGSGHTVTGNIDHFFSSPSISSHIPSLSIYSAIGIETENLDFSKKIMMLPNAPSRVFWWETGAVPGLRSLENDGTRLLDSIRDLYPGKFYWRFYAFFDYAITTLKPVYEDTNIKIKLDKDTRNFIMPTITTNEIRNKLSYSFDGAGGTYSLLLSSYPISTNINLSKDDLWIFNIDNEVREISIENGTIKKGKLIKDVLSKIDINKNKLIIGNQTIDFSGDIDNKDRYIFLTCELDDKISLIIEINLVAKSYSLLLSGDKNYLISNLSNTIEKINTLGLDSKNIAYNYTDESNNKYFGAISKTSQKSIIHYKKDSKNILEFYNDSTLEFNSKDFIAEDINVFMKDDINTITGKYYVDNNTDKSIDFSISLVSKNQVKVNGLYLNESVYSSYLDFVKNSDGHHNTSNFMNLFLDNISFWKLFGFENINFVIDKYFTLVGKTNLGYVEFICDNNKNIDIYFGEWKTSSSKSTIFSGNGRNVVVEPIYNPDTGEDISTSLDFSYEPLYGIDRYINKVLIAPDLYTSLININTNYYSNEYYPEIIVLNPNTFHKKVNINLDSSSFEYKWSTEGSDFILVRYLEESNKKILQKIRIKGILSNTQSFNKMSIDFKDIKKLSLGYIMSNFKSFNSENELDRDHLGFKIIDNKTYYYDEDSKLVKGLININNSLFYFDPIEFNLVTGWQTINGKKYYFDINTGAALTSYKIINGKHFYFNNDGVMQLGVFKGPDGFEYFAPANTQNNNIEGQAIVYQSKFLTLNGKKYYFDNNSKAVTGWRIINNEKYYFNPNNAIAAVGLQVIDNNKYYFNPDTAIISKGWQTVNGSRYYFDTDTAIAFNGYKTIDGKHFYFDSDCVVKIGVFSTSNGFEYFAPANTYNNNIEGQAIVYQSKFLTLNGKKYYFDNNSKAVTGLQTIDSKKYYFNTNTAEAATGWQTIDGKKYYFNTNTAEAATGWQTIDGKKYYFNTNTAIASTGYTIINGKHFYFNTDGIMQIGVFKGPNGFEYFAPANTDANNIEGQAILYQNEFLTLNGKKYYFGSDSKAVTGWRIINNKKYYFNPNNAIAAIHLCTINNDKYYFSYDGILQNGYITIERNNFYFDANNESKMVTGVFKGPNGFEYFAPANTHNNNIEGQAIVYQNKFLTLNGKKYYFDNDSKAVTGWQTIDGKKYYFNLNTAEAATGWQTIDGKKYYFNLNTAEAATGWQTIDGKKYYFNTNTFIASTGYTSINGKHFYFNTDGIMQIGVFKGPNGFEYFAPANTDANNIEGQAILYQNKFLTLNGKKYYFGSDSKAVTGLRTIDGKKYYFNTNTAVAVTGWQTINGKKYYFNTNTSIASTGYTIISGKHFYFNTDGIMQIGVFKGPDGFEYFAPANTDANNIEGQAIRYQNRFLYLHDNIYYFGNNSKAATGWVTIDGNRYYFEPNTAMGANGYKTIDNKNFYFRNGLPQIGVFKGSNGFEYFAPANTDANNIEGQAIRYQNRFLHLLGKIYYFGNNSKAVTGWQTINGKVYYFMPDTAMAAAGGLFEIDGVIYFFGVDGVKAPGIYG

Some solved entries appear below for comparison.
{"columns": ["binder", "reported result"],
 "data": [
  ["A1G4 (VHH) VHH: QVQLQESGGGLVQAGGSLRLSCAVSGRTLNSYAMGWFRQALGKEREFVAGISRAGGMTRYTDSVKGRFTISRDDAKNTVYLQMNSLKPDDTAVYSCAASFALVDSAGAYDYWGQGTQVTVSS", "844 nM"],
  ["A2B10 (VHH) VHH: QVQLQESGGGTVQPGGSLRLSCAASGRDFSSGAMGWFRQTPGNEREFVGVGWSGGLIDYSDSVKGRFTITRDKLKNEVYLRMDRLKPEDTAVYFCAVNSANSCAGYDCHDKPQTYNYWGQGTQVTVSS", "678 nM"],
  ["A2G6 (VHH) VHH: QVQLQESGGGLVQAGGSLRLSCAASGRTFSRIAMGWFRQVPGKEREFVAGISGNGGTFYTDSVKGRFTISRDNTKNTVYLQMNSLRPEDTAVYYCAADPNYRATYFPYGMDYYGRGTQVTVSS", "9.2 nM"]
]}

Note: attention shifts to another entry.
Entry A2H9 (VHH) VHH: QVQLQESGGGLVQAGGSLRLSCAASGRASSTYVMAWFRQAPGKEREFVAADTWGGAGTYYAPSVKGRFTISRDNAKNMLYLQMNSLKPEDTAAYYCAAGQGRSVTLFQPSTYDYWGQGTQVTVSS has what EC50 (nM), TcdA neutralization, T84 cells?
105 nM
